target: T1, monomeric human PRLR (hPRLR.mmh; SEQ ID NO:401) (Homo sapiens, UniProt P16471); test: Surface plasmon resonance (Biacore T200), antibody-capture format; assay type: binding; settings: 25° C., analyte hPRLR.mmh
T1 construct: soluble monomeric (hPRLR.mmh); mmh (myc-myc-hexahistidine) (C)
T1 sequence (P16471 with tags, fused parts or gaps): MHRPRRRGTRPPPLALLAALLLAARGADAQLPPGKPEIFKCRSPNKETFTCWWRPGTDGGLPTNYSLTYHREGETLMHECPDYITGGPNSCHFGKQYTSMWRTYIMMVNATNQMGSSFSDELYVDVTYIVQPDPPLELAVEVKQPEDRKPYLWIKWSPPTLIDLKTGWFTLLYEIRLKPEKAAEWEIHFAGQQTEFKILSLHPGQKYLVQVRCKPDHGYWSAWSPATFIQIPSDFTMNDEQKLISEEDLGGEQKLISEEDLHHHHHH
Test Readout: kd (s⁻¹)
Report the value in s⁻¹ with no unit label.

Can you look up the measured kd of H1H6976N: anti-PRLR antibody, human IgG1 Fc form of H2M6976N of Table 1; HCVR/LCVR SEQ ID NOs 386/394 (antibody, V domains shown, human IgG1 Fc) VH: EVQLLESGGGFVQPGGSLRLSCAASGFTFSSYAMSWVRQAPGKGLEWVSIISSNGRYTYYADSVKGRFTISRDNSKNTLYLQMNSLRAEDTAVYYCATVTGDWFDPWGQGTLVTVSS VL: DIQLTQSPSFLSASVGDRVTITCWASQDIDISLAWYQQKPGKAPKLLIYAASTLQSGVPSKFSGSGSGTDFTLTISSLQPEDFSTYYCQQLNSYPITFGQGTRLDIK for me?
0.000864

// same read-out, input: H1H6960N: anti-PRLR antibody, human IgG1 Fc form of H2M6960N of Table 1; HCVR/LCVR SEQ ID NOs 322/330 (antibody, V domains shown, human IgG1 Fc) VH: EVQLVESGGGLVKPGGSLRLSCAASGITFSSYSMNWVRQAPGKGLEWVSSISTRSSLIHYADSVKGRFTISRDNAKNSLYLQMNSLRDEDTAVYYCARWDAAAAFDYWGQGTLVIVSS VL: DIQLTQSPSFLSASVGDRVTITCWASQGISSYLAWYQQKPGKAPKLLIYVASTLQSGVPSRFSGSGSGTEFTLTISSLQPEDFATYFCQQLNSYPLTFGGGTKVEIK
0.000729

// same read-out, input: H1H6958N2: anti-PRLR antibody, receptor blocking, human IgG1 Fc form of H2M6958N2 of Table 1; HCVR/LCVR SEQ ID NOs 290/298 (antibody, V domains shown) VH: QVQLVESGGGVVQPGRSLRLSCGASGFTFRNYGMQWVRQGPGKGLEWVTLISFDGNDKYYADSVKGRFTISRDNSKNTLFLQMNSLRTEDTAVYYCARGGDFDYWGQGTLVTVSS VL: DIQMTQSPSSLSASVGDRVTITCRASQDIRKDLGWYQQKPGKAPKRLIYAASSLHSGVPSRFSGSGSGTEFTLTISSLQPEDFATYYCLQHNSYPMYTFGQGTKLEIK
0.000272

// same read-out, input: H1H6803P: fully human anti-PRLR antibody, human IgG1 Fc; HCVR/LCVR SEQ ID NOs 226/234 (antibody, V domains shown) VH: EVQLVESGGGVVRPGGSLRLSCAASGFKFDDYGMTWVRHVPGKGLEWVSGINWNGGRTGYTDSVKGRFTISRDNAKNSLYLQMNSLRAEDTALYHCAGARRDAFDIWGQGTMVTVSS VL: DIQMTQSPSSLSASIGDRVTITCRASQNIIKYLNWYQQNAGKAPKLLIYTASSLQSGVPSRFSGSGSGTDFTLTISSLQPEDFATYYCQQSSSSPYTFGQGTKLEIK
0.000137

// same read-out, input: H1H6953N: anti-PRLR antibody, human IgG1 Fc form of H1M6953N of Table 1; HCVR/LCVR SEQ ID NOs 274/282 (antibody, V domains shown) VH: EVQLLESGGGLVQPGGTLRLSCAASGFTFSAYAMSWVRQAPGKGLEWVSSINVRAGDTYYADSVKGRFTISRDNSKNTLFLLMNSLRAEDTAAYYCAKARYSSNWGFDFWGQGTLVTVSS VL: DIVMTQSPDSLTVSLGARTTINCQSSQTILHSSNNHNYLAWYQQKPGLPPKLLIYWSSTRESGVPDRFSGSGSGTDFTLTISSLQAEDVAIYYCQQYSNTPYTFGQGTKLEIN
0.000212

// same read-out, input: H1H6792P: fully human anti-PRLR antibody, human IgG1 Fc; HCVR/LCVR SEQ ID NOs 130/138 (antibody, V domains shown) VH: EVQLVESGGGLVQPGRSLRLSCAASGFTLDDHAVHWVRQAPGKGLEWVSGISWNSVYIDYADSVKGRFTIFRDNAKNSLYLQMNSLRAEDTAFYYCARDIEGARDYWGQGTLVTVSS VL: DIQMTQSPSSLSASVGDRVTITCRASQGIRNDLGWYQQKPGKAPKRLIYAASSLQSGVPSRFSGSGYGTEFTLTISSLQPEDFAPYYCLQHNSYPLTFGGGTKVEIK
0.000794

// same read-out, input: H1H6781P: fully human anti-PRLR antibody, human IgG1 Fc; HCVR/LCVR SEQ ID NOs 50/58 (antibody, V domains shown) VH: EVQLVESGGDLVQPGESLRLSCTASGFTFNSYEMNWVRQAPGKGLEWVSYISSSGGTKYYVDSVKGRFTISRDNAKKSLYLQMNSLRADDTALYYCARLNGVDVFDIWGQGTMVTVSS VL: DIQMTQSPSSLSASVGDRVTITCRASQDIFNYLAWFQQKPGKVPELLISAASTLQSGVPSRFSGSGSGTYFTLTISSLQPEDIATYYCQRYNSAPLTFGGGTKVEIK
0.000127

// same read-out, input: H1H6765P: fully human anti-PRLR antibody, human IgG1 Fc; HCVR/LCVR SEQ ID NOs 18/26 (antibody, V domains shown) VH: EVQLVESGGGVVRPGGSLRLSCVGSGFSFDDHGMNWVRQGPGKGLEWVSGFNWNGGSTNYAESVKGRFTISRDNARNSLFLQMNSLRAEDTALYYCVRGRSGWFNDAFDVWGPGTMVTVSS VL: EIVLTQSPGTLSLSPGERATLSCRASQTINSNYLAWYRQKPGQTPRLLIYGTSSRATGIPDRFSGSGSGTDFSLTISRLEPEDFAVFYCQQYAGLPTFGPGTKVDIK
0.000113
